test system: PPARg DBDmut IVT, anti-PPARg (DBD mutation: PPARg1 K132A/R137A, NR concentration 270 nM); test: PBM binding z-score (relative to random genomic background probes); higher = stronger binding; sequences stand for … in GC…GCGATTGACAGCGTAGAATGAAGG
Decision: PBM binding z-score >= 1 yields true, all other cases yield false.

> print(dat)
                             seq.text  group.label
1  TCATATAGGTAATACAGGTGAATGTCGGCATCTA         true
2  CCTGCTAGGTCATGGACAGCTAATCTACAGTATG        false
3  CCAGACAGGTGAAAGGTAACTCAGTCTGGTACGC        false
4  CCTCGGAGGACAACAGGAGTTCAGAGCTGCCAGA        false
5  TCTGGTAGATCAATAGAGGTTAAGAAAGTGCGCT        false

Does the sequence GGAATGAGGGCAAAGTTGATAGCATCTGTCGACG have recorded PBM binding z-score that is 1 or more?
false

Does PBM binding z-score meet or surpass 1 for ATCTGTAGGTTAGCTGGGGTCATTCAGACTAGGC ?
true

Answer whether PBM binding z-score of CCGAGTAGGTTATGGGGCCTTCAGGCAACGGTGA is greater than or equal to 1.
false
